Source listed as ChEMBL document CHEMBL1158546.

experiment: Volume of distribution at steady state in Sprague-Dawley rat at 2.5 mg/kg, iv; assay type: ADME, organism-based; parameters: dose 2.5 mg/kg, route intravenous; conditions: in vivo, read-out: Vdss
parameterMeasured: Vd (L/kg)
Numbers only, in L/kg.

Entry "O=C(O)CCCOc1cccc(CCCCCCOc2cc(-c3ccccc3)cc(-c3ccccc3)n2)c1CCC(=O)O" , Vd reported as 0.3

----------
Kindly state pIC50 for each of the entries shown.
molecular target: Cytochrome P450 1A2 (Homo sapiens, UniProt P05177)
Sequence (P05177 whole entry): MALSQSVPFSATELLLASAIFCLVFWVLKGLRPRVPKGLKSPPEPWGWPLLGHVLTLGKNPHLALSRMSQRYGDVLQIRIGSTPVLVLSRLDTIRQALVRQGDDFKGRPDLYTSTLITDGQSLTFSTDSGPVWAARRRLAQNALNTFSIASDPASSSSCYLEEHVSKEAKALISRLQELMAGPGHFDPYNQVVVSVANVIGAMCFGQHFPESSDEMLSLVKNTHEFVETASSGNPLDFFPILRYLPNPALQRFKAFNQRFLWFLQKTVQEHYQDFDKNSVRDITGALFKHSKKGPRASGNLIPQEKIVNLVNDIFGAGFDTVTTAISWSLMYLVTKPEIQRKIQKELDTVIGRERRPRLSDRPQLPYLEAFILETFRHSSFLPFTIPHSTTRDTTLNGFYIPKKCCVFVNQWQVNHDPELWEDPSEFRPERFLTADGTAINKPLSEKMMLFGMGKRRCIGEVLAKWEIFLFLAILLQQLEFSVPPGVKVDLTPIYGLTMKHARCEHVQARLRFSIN
pIC50: −log10 of the molar value.

Worked cases, pIC50 given:
- entrySmiles: "O=C(O)CCCOc1cccc(CCCCCCOc2cc(-c3ccncc3)cc(-c3ccncc3)c2)c1CCC(=O)O"
  parameterMeasured: "pIC50"
  testResult: "< 5.12"
- entrySmiles: "O=C(O)CCCOc1cccc(CCCCCCOc2cc(-c3ccccc3)cc(-c3ccccc3)c2)c1CCC(=O)O"
  parameterMeasured: "pIC50"
  testResult: "< 5.12"

Could you now consider this next compound?
Quick note, pIC50 for "O=C(O)CCCOc1cccc(CCCCCCOc2cc(-c3ccc4c(c3)OCO4)cc(-c3ccccc3F)c2)c1CCC(=O)O" landed at < 5.12

----------
Hi there, I'd appreciate the recorded pIC50 for every entry that follows.
molecular target: UniProtKB P11712; assay: Inhibition of CYP2C9 fluorescence method; format: ADME
Sequence (P11712 whole entry): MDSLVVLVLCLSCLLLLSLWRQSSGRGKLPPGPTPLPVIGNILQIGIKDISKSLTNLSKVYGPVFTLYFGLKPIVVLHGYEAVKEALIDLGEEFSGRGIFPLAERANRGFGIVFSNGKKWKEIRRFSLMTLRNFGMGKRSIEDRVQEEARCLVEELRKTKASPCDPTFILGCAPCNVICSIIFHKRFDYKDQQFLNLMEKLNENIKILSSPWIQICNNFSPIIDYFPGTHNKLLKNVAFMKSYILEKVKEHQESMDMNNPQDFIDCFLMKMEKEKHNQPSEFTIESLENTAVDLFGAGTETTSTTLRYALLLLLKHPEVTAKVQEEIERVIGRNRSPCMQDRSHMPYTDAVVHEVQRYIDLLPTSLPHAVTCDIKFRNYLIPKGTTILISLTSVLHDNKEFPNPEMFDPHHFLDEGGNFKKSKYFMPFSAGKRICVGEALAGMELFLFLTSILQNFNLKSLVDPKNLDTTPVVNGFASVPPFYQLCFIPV
Answers are plain numbers, as −log10 of the molar value.

- entrySmiles: "O=C(O)CCCOc1cccc(CCCCCCOc2cc(-c3ccc4c(c3)OCO4)cc(-c3ccccc3F)c2)c1CCC(=O)O"
  pIC50: 5.12

Give measured pIC50 for every item shown.
1. O=C(O)CCCOc1cccc(CCCCCCOc2cc(-c3ccsc3)cc(-c3ccc4c(c3)OCO4)c2)c1CCC(=O)O
2. O=C(O)CCCOc1cccc(CCCCCCOc2cc(-c3ccncc3)cc(-c3ccncc3)c2)c1CCC(=O)O

Output:
1: 5.41; 2: 6.47

----------
Consider the following compounds; for each one, report its Tmax.
assay: Tmax in Sprague-Dawley rat at 10 mg/kg, po; format: ADME, organism-based; design: dose 10 mg/kg, route oral; details: in vivo
Numbers only, in h.

Recorded results for 2 compounds are shown here.
- entrySmiles: "O=C(O)CCCOc1cccc(CCCCCCOc2cc(-c3cccc(F)c3)cc(-c3ccc4c(c3)OCO4)c2)c1CCC(=O)O"
  Tmax, h: 5
- entrySmiles: "O=C(O)CCCOc1cccc(CCCCCCOc2cc(-c3ccccc3)cc(-c3ccccc3)n2)c1CCC(=O)O"
  Tmax, h: 2.3

Consider the following items and state reported Tmax for each.
1. O=C(O)CCCOc1cccc(CCCCCCOc2cc(-c3ccncc3)cc(-c3ccncc3)c2)c1CCC(=O)O
2. O=C(O)CCCOc1cccc(CCCCCCOc2cc(-c3ccsc3)cc(-c3ccc4c(c3)OCO4)c2)c1CCC(=O)O

Output:
1: 5; 2: 3

----------
assay: AUC (0 to 24hrs) in rat at 40 mg/kg, po qd treated for 14 days; assay type: ADME, organism-based; set-up: time < 24 hr, dose 40 mg/kg, route oral; details: plasma
parameterMeasured: AUC at 24 h (ng·h/mL)
One number for each entry, in ng·h/mL.

According to the records, this compound "O=C(O)CCCOc1cccc(CCCCCCOc2cc(-c3cccc(F)c3)cc(-c3ccc4c(c3)OCO4)c2)c1CCC(=O)O" displays AUC at 24 h of 80600

----------
molecular target: Leukotriene B4 receptor 2 (Homo sapiens, UniProt Q9NPC1); experiment: Antagonist activity at FLAG-tagged human BLT2 receptor expressed in HEK293 cells assessed as inhibition of LTB4-stimulated calcium mobilization preincubated for 10 mins before LTB4 challenge
Sequence (Q9NPC1 whole entry): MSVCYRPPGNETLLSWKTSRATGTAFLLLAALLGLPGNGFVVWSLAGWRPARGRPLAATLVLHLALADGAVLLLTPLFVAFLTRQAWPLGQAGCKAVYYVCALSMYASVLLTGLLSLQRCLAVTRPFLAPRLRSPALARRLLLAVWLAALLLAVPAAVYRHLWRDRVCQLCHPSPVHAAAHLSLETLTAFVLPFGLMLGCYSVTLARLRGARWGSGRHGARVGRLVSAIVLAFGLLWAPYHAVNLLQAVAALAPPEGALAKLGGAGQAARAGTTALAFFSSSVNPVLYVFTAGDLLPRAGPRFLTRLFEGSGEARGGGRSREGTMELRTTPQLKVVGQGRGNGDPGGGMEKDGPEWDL
Field: label. Allowed values: condition met (IC50 < 0.2 µM) or condition not met (IC50 >= 0.2 µM).

- entrySmiles: "O=C(O)CCCOc1cccc(CCCCCCOc2cc(-c3ccncc3)cc(-c3ccncc3)c2)c1CCC(=O)O"
  group: "condition met"
- entrySmiles: "O=C(O)CCCOc1cccc(CCCCCCOc2cc(-c3cccc(F)c3)cc(-c3ccc4c(c3)OCO4)c2)c1CCC(=O)O"
  group: "condition met"
- entrySmiles: "O=C(O)CCCOc1cccc(CCCCCCOc2cc(-c3ccccc3)cc(-c3ccccc3)c2)c1CCC(=O)O"
  group: "condition not met"
- entrySmiles: "O=C(O)CCCOc1cccc(CCCCCCOc2cc(-c3ccccc3)cc(-c3ccccc3)n2)c1CCC(=O)O"
  group: "condition not met"

Turning now to a further compound:
Task: Given the entry "O=C(O)CCCOc1cccc(CCCCCCOc2cc(-c3ccsc3)cc(-c3ccc4c(c3)OCO4)c2)c1CCC(=O)O" , would its reported IC50 be below 0.2 µM?
Output: condition met

----------
biological target: Leukotriene B4 receptor 1 (Homo sapiens, UniProt Q15722); test: Antagonist activity at FLAG-tagged human BLT1 receptor expressed in HEK293 cells assessed as inhibition of LTB4-stimulated calcium mobilization preincubated for 10 mins before LTB4 challenge; assay type: functional, cell-based
Sequence (Q15722 whole entry): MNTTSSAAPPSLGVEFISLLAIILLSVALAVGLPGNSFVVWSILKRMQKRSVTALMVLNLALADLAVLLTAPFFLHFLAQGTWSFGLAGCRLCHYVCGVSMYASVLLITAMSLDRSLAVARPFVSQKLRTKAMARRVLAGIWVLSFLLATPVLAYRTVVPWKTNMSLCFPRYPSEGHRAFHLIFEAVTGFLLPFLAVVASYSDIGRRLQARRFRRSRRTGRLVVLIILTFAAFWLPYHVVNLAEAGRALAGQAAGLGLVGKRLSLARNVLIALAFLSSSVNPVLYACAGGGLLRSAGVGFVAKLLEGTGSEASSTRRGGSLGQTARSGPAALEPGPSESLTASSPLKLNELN
Please provide measured pIC50 for the entries that follow.
Answers are plain numbers, as −log10 of the molar value.

- entrySmiles: "O=C(O)CCCOc1cccc(CCCCCCOc2cc(-c3ccccc3)cc(-c3ccccc3)c2)c1CCC(=O)O"
  pIC50: 7.41
- entrySmiles: "O=C(O)CCCOc1cccc(CCCCCCOc2cc(-c3ccsc3)cc(-c3ccc4c(c3)OCO4)c2)c1CCC(=O)O"
  pIC50: 6.94

Please look at the items below and tell me pIC50 for each one, in order.
1. O=C(O)CCCOc1cccc(CCCCCCOc2cc(-c3ccncc3)cc(-c3ccncc3)c2)c1CCC(=O)O
2. O=C(O)CCCOc1cccc(CCCCCCOc2cc(-c3cccc(F)c3)cc(-c3ccc4c(c3)OCO4)c2)c1CCC(=O)O
3. O=C(O)CCCOc1cccc(CCCCCCOc2cc(-c3ccccc3)cc(-c3ccccc3)n2)c1CCC(=O)O

Output:
1: 7.15; 2: 6.89; 3: 6.69

----------
test: Half life in Sprague-Dawley rat at 10 mg/kg, po; assay type: ADME, organism-based; set-up: dose 10 mg/kg, route oral; settings: in vivo
parameterMeasured: half-life (h)
Answers are plain numbers, in h.

Batch lookup, half-life per entry.
1. O=C(O)CCCOc1cccc(CCCCCCOc2cc(-c3ccsc3)cc(-c3ccc4c(c3)OCO4)c2)c1CCC(=O)O
2. O=C(O)CCCOc1cccc(CCCCCCOc2cc(-c3ccncc3)cc(-c3ccncc3)c2)c1CCC(=O)O
3. O=C(O)CCCOc1cccc(CCCCCCOc2cc(-c3ccccc3)cc(-c3ccccc3)n2)c1CCC(=O)O

Output:
[2.7, 4.52, 2.9]

In plain terms, "O=C(O)CCCOc1cccc(CCCCCCOc2cc(-c3cccc(F)c3)cc(-c3ccc4c(c3)OCO4)c2)c1CCC(=O)O" has a documented half-life of 3.1

----------
test: Volume of distribution at steady state in Sprague-Dawley rat at 5 mg/kg, iv; assay type: ADME, organism-based; design: dose 5 mg/kg, route intravenous; conditions: in vivo, read-out: Vdss
Exercise: state measured Vd for each of the compounds provided.
Give bare numbers, in L/kg.

// known answers, use as guide
- entrySmiles: "O=C(O)CCCOc1cccc(CCCCCCOc2cc(-c3ccncc3)cc(-c3ccncc3)c2)c1CCC(=O)O"
  Vd [L/kg]: 1.55
- entrySmiles: "O=C(O)CCCOc1cccc(CCCCCCOc2cc(-c3cccc(F)c3)cc(-c3ccc4c(c3)OCO4)c2)c1CCC(=O)O"
  Vd [L/kg]: 0.98

Alright, here's another compound for you.
// "O=C(O)CCCOc1cccc(CCCCCCOc2cc(-c3ccsc3)cc(-c3ccc4c(c3)OCO4)c2)c1CCC(=O)O" : Vd value = 0.22

----------
test: Lipophilicity, log D of compound at pH 7.4; details: buffer
parameterMeasured: logD
Give bare numbers.

- entrySmiles: "O=C(O)CCCOc1cccc(CCCCCCOc2cc(-c3ccc4c(c3)OCO4)cc(-c3ccccc3F)c2)c1CCC(=O)O"
  logD: 2.44
- entrySmiles: "O=C(O)CCCOc1cccc(CCCCCCOc2cc(-c3ccsc3)cc(-c3ccc4c(c3)OCO4)c2)c1CCC(=O)O"
  logD: 2.34
- entrySmiles: "O=C(O)CCCOc1cccc(CCCCCCOc2cc(-c3ccncc3)cc(-c3ccncc3)c2)c1CCC(=O)O"
  logD: 1.78

What the record says about "O=C(O)CCCOc1cccc(CCCCCCOc2cc(-c3ccccc3)cc(-c3ccccc3)c2)c1CCC(=O)O" : logD is 0.7

----------
biological target: Cytochrome P450 2C19 (Homo sapiens)
Sequence (P33261 whole entry): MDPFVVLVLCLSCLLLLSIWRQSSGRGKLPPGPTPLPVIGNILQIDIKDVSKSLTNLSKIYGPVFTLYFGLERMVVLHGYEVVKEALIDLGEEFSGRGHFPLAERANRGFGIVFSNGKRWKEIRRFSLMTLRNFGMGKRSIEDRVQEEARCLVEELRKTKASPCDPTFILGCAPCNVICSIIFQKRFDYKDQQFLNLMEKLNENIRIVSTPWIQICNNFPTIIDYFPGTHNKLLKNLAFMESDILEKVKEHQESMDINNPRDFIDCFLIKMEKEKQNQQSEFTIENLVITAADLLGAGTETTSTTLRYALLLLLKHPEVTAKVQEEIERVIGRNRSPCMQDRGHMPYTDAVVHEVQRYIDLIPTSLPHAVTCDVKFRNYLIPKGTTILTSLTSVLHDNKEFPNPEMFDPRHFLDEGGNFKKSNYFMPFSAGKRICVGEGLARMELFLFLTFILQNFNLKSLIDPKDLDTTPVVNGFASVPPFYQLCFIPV
pIC50: −log10 of the molar value.
For each record, write down the corresponding pIC50.

- entrySmiles: "O=C(O)CCCOc1cccc(CCCCCCOc2cc(-c3ccsc3)cc(-c3ccc4c(c3)OCO4)c2)c1CCC(=O)O"
  pIC50: "< 5.12"

Now examine the next entry.
I looked up "O=C(O)CCCOc1cccc(CCCCCCOc2cc(-c3ccncc3)cc(-c3ccncc3)c2)c1CCC(=O)O" and its pIC50 for Cytochrome P450 2C19 (Homo sapiens) was < 5.12
